Tested on: GST-Bcl-2
Assay: TR-FRET binding assay, Bcl-2
Settings: TR-FRET Ki values
Binary call on Binding selectivity ratio (Bcl-XL Ki/Bcl-2 Ki) with cut-off 600: strictly below means Condition met, and equality or higher means Condition not met.

Previously resolved entries follow.
Molecule: CC(=O)N1CCC(Nc2ccc(S(=O)(=O)NC(=O)c3ccc(N4CCN(CC5=C(c6ccc(Cl)cc6)CC(C)(C)CC5)CC4)cc3Oc3cccc4[nH]ccc34)cc2[N+](=O)[O-])CC1 [EXAMPLE 337]
Class label: Condition not met
--
Molecule: CC1(C)CCC(CN2CCN(c3ccc(C(=O)NS(=O)(=O)c4cnc(OCC5CCOCC5)c(Cl)c4)c(Oc4cccc5[nH]ncc45)c3)CC2)=C(c2ccc(Cl)cc2)C1 [EXAMPLE 427]
Class label: Condition not met

# ---- query molecule ----
I'd appreciate it if you could check whether CN(C)CCOc1ccc(-c2ccc(Cl)cc2)c(CN2CCN(c3ccc(C(=O)NS(=O)(=O)c4ccc(NC5CCN(C)CC5)c([N+](=O)[O-])c4)c(Oc4ccccc4)c3)CC2)c1 [Example 133] has Binding selectivity ratio (Bcl-XL Ki/Bcl-2 Ki) smaller than 600. Condition met

###

Tested on: GST-Bcl-2
Experiment: TR-FRET binding assay, Bcl-2
Conditions: TR-FRET Ki values
Please map values of Binding selectivity ratio (Bcl-XL Ki/Bcl-2 Ki) to classes as shown: class 1: < 100; class 2: ≥ 100 and < 500; class 3: ≥ 500

Class label required: `O=C(NS(=O)(=O)c1ccc(NCC2CCOCC2)c([N+](=O)[O-])c1)c1ccc(N2CCN(Cc3ccccc3-c3ccc(Cl)cc3)CC2)cc1Oc1cccc2[nH]ccc12` class 3

Class label required: `CC1(C)CCC(CN2CCN(c3ccc(C(=O)NS(=O)(=O)c4cnc(OCC5CCOCC5)c(Cl)c4)c(Oc4cccc5[nH]ccc45)c3)CC2)=C(c2ccc(Cl)cc2)C1` class 3

Class label required: `CN(C)CC(=O)N1CCO[C@H](CNc2ccc(S(=O)(=O)NC(=O)c3ccc(N4CCN(CC5=C(c6ccc(Cl)cc6)CC(C)(C)CC5)CC4)cc3Oc3cccc4[nH]cnc34)cc2[N+](=O)[O-])C1` class 1

Class label required: `CC1(C)CCC(CN2CCN(c3ccc(C(=O)NS(=O)(=O)c4ccc(NCC(F)(F)F)c([N+](=O)[O-])c4)c(Oc4ccc5[nH]ccc5c4)c3)CC2)=C(c2ccc(Cl)cc2)C1` class 3

Class label required: `CC1(C)CCC(CN2CCN(c3ccc(C(=O)NS(=O)(=O)c4cnc(OCC5(F)CCN(C(CF)CF)CC5)c(C(F)(F)F)c4)c(Oc4cccc5[nH]ncc45)c3)CC2)=C(c2ccc(Cl)cc2)C1` class 3

Class label required: `O=C(NS(=O)(=O)c1ccc(NCc2cccs2)c([N+](=O)[O-])c1)c1ccc(N2CCN(Cc3ccccc3-c3ccc(Cl)cc3)CC2)cc1Oc1ccccc1` class 2

Class label required: `CC1(C)CCC(CN2CCN(c3ccc(C(=O)NS(=O)(=O)c4ccc(NCC5(N)CCOCC5)c([N+](=O)[O-])c4)c(Oc4cccc5[nH]ccc45)c3)CC2)=C(c2ccc(Cl)cc2)C1` class 2

Class label required: `CN1CCC(Nc2ccc(S(=O)(=O)NC(=O)c3ccc(N4CCN(CC5=C(c6ccc(Cl)cc6)CC(C)(C)CC5)CC4)cc3Oc3ccc4c(c3)CCCN4)cc2[N+](=O)[O-])CC1` class 1

Class label required: CC1(C)CCC(CN2CCN(c3ccc(C(=O)NS(=O)(=O)c4ccc(NC5CCN(C6CCOCC6)CC5)c([N+](=O)[O-])c4)c(Oc4ccc5[nH]ccc5c4)c3)CC2CO)=C(c2ccc(Cl)cc2)C1 (centres unmarked) class 2
